Would you kindly list gamma-GTP for each of these molecules?
Organism: Rattus norvegicus
experimental protocol: Open TG-GATES - Regimen: Daily Repeat
Type: toxicity, organism-based, Sprague-Dawley
Design: regimen Daily Repeat, gender Male, age 6 weeks
measurement conditions: in vivo, po, 300 mg/kg, […], tissue Plasma, route gavage, dose level Middle, time 14 day
One number for each entry, in IU/L.

Answered cases to consult:
molecule | value observed
CCOc1ccc(NC(=O)CC(C)O)cc1 (stereo not given) [BUCETIN] | 1
NC(N)=Nc1nc(CSCCC(N)=NS(N)(=O)=O)cs1 [FAMOTIDINE] | 2.2
COC1=CC(=O)C[C@@H](C)[C@]12Oc1c(Cl)c(OC)cc(OC)c1C2=O [GRISEOFULVIN] | 1
COc1ccc2[nH]c([S+]([O-])Cc3ncc(C)c(OC)c3C)nc2c1 (stereo not given) [OMEPRAZOLE] | 0.8

Incoming: Which value of gamma-GTP has been reported for CCOC(=O)CCC(=O)O[C@H]1[C@H](O[C@@H]2[C@@H](C)[C@H](O[C@H]3C[C@@](C)(OC)[C@@H](O)[C@H](C)O3)[C@@H](C)C(=O)O[C@H](CC)[C@@](C)(O)[C@H](O)[C@@H](C)C(=O)[C@H](C)C[C@@]2(C)O)O[C@H](C)C[C@@H]1N(C)C [ERYTHROMYCIN ETHYLSUCCINATE] in the records?
Outgoing: 1.6

====

Organism: Rattus norvegicus
experimental protocol: Open TG-GATES - Regimen: Daily Repeat
Type: toxicity, organism-based, Sprague-Dawley
Set-up: regimen Daily Repeat, gender Male, age 6 weeks
measurement conditions: in vivo, po, 1000 mg/kg, […], tissue Kidney, route gavage, dose level High, time 14 day
metric: KIDNEY_R

Answered cases to consult:
compound | value observed
NC(N)=Nc1nc(CSCCC(N)=NS(N)(=O)=O)cs1 | 1.3 g
COc1ccc2[nH]c([S+]([O-])Cc3ncc(C)c(OC)c3C)nc2c1 (stereo unspecified) | 1.2 g
COC1=CC(=O)C[C@@H](C)[C@]12Oc1c(Cl)c(OC)cc(OC)c1C2=O | 1.3 g
CCOC(=O)CCC(=O)O[C@H]1[C@H](O[C@@H]2[C@@H](C)[C@H](O[C@H]3C[C@@](C)(OC)[C@@H](O)[C@H](C)O3)[C@@H](C)C(=O)O[C@H](CC)[C@@](C)(O)[C@H](O)[C@@H](C)C(=O)[C@H](C)C[C@@]2(C)O)O[C@H](C)C[C@@H]1N(C)C [ERYTHROMYCIN ETHYLSUCCINATE] | 1.2 g

Dear colleague, could you please provide KIDNEY_R for the compounds listed below?
1. CC(C)OC(=O)C(C)(C)Oc1ccc(C(=O)c2ccc(Cl)cc2)cc1 [FENOFIBRATE]
2. CCOc1ccc(NC(=O)CC(C)O)cc1 (stereo unspecified)

Outgoing:
1.2 g
1.3 g

====

Organism: Rattus norvegicus
experimental protocol: Open TG-GATES - Regimen: Single
Format: toxicity, organism-based, Sprague-Dawley
Parameters: regimen Single, gender Male, age 6 weeks
measurement conditions: in vivo, po, 100 mg/kg, 3 h, tissue Blood, route gavage, dose level Low
metric: Mono (%)
One number for each entry, in %.

Dear colleague, could you please provide Mono for the molecules listed below?
1. NC(N)=Nc1nc(CSCCC(N)=NS(N)(=O)=O)cs1 [FAMOTIDINE]
2. CCOC(=O)CCC(=O)O[C@H]1[C@H](O[C@@H]2[C@@H](C)[C@H](O[C@H]3C[C@@](C)(OC)[C@@H](O)[C@H](C)O3)[C@@H](C)C(=O)O[C@H](CC)[C@@](C)(O)[C@H](O)[C@@H](C)C(=O)[C@H](C)C[C@@]2(C)O)O[C@H](C)C[C@@H]1N(C)C [ERYTHROMYCIN ETHYLSUCCINATE]

Outgoing:
1: 2.4; 2: 2.6

Dear colleague, could you please provide Mono for the molecules listed below?
1. COC1=CC(=O)C[C@@H](C)[C@]12Oc1c(Cl)c(OC)cc(OC)c1C2=O [GRISEOFULVIN]
2. COc1ccc2[nH]c([S+]([O-])Cc3ncc(C)c(OC)c3C)nc2c1 (centres undefined) [OMEPRAZOLE]

Outgoing:
1: 2.8; 2: 3.4
